Origin of values: ChEMBL document CHEMBL1158689

Assay system Prolyl endopeptidase (Homo sapiens); read-out recorded as IC50.
Assay Metric: IC50 (µM)

CC(C)=CCC[C@H](C(=O)O)[C@H]1CC[C@]2(C)C3=C(CC[C@@]12C)[C@@]1(C)CCC(=O)C(C)(C)[C@H]1CC3
39.7
C[C@H]1[C@H](C)CC[C@]2(C)CC[C@]3(C)C(=CC[C@@H]4[C@@]5(C)CC[C@@H](O)[C@](C)(C(=O)O)[C@@H]5CC[C@]43C)[C@H]12
9.75
